target: BCL-XL (Homo sapiens); construct: endogenous in cells; host or cells: MOLT-4; assay: Bcl-xL ELISA degradation in MOLT-4 cells, 6 h; type: cell-based
Provide the recorded Dmax for the entries that follow.

### Prompt Fill blank: measured Dmax of the compound C#Cc1ccc(CNC(=O)[C@@H]2C[C@@H](O)CN2C(=O)[C@@H](NC(=O)CCc2ccc(S(=O)(=O)NC(=O)c3nc(N(C)c4cc(C)c(Nc5nc6ccccc6s5)nn4)ccc3-c3cnn(CC(C)C)c3C)cc2)C(C)(C)C)cc1 is ____.
### Response < 50%

### Prompt Input Cc1ncsc1-c1ccc(CNC(=O)[C@@H]2C[C@@H](O)CN2C(=O)[C@H](c2cc(OCCCCCCCCC(=O)N(C)CC#Cc3ccc(OCCCc4ccc(N5CCc6cccc(C(=O)Nc7nc8ccccc8s7)c6C5)nc4C(=O)O)c(F)c3)no2)C(C)C)cc1
### Response 50 to 75%

### Prompt Input Cc1ncsc1-c1ccc([C@H](C)NC(=O)[C@@H]2C[C@@H](O)CN2C(=O)[C@@H](NC(=O)CCCCCCC(=O)N2CCN(C[C@]3(C)CCC(c4ccc(Cl)cc4)=C(CN4CCN(c5ccc(C(=O)NS(=O)(=O)c6ccc(N[C@H](CCN7CCOCC7)CSc7ccccc7)c(S(=O)(=O)C(F)(F)F)c6)cc5)CC4)C3)CC2)C(C)(C)C)cc1
### Response 50 to 75%

### Prompt Input Cc1cc(N(C)c2ccc(-c3cnn(CC45CC6CC(CC(C6)C4)C5)c3C)c(C(=O)NS(=O)(=O)CCCCC(=O)N[C@H](C(=O)N3C[C@H](O)C[C@H]3C(=O)N[C@@H](C)c3ccc(-c4scnc4C)cc3)C(C)(C)C)n2)nnc1Nc1nc2ccccc2s1
### Response > 75%

----------
Provide the recorded DC50 for the entries that follow.
target: BCL-XL (Homo sapiens, UniProt Q07817); construct: endogenous in cells; host or cells: MOLT-4; assay: BCL-XL degradation assay, western blot in MOLT-4 cells, 16 h; type: cell-based; details: western blot, MOLT-4 cells, 16 h; read-out: Bcl-xL WB in MOLT-4 degradation 16 h: Mean external-Abs DC50
Sequence (Q07817 whole entry): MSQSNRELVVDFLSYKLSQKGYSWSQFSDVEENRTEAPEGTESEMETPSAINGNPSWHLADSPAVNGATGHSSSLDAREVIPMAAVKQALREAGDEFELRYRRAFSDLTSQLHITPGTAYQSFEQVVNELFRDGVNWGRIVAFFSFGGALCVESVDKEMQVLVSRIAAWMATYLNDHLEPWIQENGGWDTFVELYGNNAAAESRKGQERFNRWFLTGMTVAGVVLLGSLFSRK

### Prompt Fill blank: measured DC50 of the compound Cc1ncsc1-c1ccc(CNC(=O)[C@@H]2C[C@@H](O)CN2C(=O)[C@@H](NC(=O)C2(F)CC2)C(C)(C)C)c(OCCCCCC(=O)N(C)CCCc2cccc(F)c2OCCCc2sc(N3CCc4cccc(C(=O)Nc5nc6ccccc6s5)c4C3)nc2C(=O)O)c1 [I-13] is ____.
### Response 100 to 500 nM

### Prompt Input Cc1cc(N2CCC(C(=O)N[C@H](C(=O)N3C[C@H](O)C[C@H]3C(=O)N[C@@H](C)c3ccc(-c4scnc4C)cc3)C(C)(C)C)CC2)ccc1S(=O)(=O)NC(=O)c1nc(N2CCc3cccc(C(=O)Nc4nc5ccccc5s4)c3C2)ccc1-c1cnn(CC2CCCCC2)c1C [I-275]
### Response < 10 nM

----------
target: BCL-XL (Homo sapiens, UniProt Q07817); construct: endogenous in cells; host or cells: MOLT-4; assay: Bcl-xL ELISA degradation in MOLT-4 cells, 6 h; assay type: cell-based
Provide the recorded Dmax for the entries that follow.

### Prompt Fill blank: measured Dmax of the compound C#Cc1ccc(CNC(=O)[C@@H]2C[C@@H](O)CN2C(=O)[C@H](NC(=O)CCCCCS(=O)(=O)NC(=O)c2nc(N3CCc4cccc(C(=O)Nc5nc6ccccc6s5)c4C3)ccc2-c2cnn(CC3CCCCC3)c2C)C(C)(C)CCOP(=O)(O)O)cc1 is ____.
### Response > 75%

### Prompt Input Cc1ncsc1-c1ccc([C@H](C)NC(=O)[C@@H]2C[C@@H](O)CN2C(=O)[C@H](NC(=O)CCCCCS(=O)(=O)NC(=O)c2nc(N3CCc4cccc(C(=O)Nc5nc6ccccc6s5)c4C3)ccc2-c2cnn(CC3CCCCC3)c2C)C(C)(C)CCOP(=O)(O)O)cc1
### Response > 75%

### Prompt Input Cc1ncsc1-c1ccc([C@H](C)NC(=O)[C@@H]2C[C@H](O)CN2C(=O)[C@@H](NC(=O)C2CCN(c3ccc(S(=O)(=O)NC(=O)c4nc(N5CCc6cccc(C(=O)Nc7nc8ccccc8s7)c6C5)ccc4-c4cnn(CC5CCCCC5)c4C)cc3)CC2)C(C)(C)C)cc1
### Response 50 to 75%

### Prompt Input Cc1ncsc1-c1ccc([C@H](C)NC(=O)[C@@H]2C[C@@H](O)CN2C(=O)[C@@H](NC(=O)CCCCCCN(C)C(=O)c2nc(N3CCc4cccc(C(=O)Nc5nc6ccccc6s5)c4C3)ccc2-c2cnn(CC3CCCCC3)c2C)C(C)(C)C)cc1
### Response 50 to 75%

----------
biological target: BCL-XL (Homo sapiens, UniProt Q07817); construct: endogenous in cells; host or cells: MOLT-4; assay: Bcl-xL ELISA degradation in MOLT-4 cells, 6 h; type: cell-based; conditions: read-out: Bcl-xL ELISA in MOLT-4 degradation 6 h: Mean external-Abs DC50
READOUT_LABEL: DC50

### Prompt Fill blank: measured DC50 of the compound Cc1ncsc1-c1ccc(CNC(=O)[C@@H]2C[C@@H](O)CN2C(=O)[C@@H](NC(=O)CCCS(=O)(=O)NC(=O)c2nc(N3CCc4cccc(C(=O)Nc5nc6cccnc6s5)c4C3)ccc2-c2cnn(CC3CCCCC3)c2C)C(C)(C)C)cc1 is ____.
### Response 0.1 to 0.5 µM

### Prompt Input Cc1ncsc1-c1ccc([C@H](C)NC(=O)[C@@H]2C[C@@H](O)CN2C(=O)[C@@H](NC(=O)CCCCCS(=O)(=O)NC(=O)c2nc(N3CCc4cccc(C(=O)Nc5nc6c(F)cccc6s5)c4C3)ccc2-c2cnn(CC3CCCCC3)c2C)C(C)(C)C)cc1
### Response < 0.01 µM

### Prompt Input Cc1ncsc1-c1ccc([C@H](C)NC(=O)[C@@H]2C[C@@H](O)CN2C(=O)[C@@H](NC(=O)CCCCCS(=O)(=O)NC(=O)c2nc(N3CCc4cccc(C(=O)Nc5nc6cccnc6s5)c4C3)ccc2-c2cnn(CC(C)(C)C)c2C)C(C)(C)C)cc1
### Response 0.1 to 0.5 µM

### Prompt Input Cc1ncsc1-c1ccc(CNC(=O)[C@@H]2C[C@@H](O)CN2C(=O)[C@@H](NC(=O)C2(F)CC2)C(C)(C)C)c(OCCN2CC3(C2)CN(C(=O)c2nc(N4CCc5cccc(C(=O)Nc6nc7ccccc7s6)c5C4)ccc2-c2cnn(CC4CCCCC4)c2C)C3)c1
### Response > 1 µM

----------
target: BCL-XL (Homo sapiens); construct: endogenous in cells; host or cells: MOLT-4; experiment: Bcl-xL ELISA degradation in MOLT-4 cells, 6 h; assay type: cell-based
READOUT_LABEL: Dmax

### Prompt Fill blank: measured Dmax of the compound C#Cc1ccc([C@H](C)NC(=O)[C@@H]2C[C@@H](O)CN2C(=O)[C@@H](NC(=O)C2CN(c3ccc(S(=O)(=O)NC(=O)c4nc(N(C)c5cc(C)c(Nc6nc7ccccc7s6)nn5)ccc4-c4cnn(CC56CC7CC(CC(C7)C5)C6)c4C)cc3)C2)C(C)(C)C)cc1 [I-438] is ____.
### Response > 75%

### Prompt Input Cc1ncsc1-c1ccc([C@H](C)NC(=O)[C@@H]2C[C@@H](O)CN2C(=O)[C@@H](NC(=O)CCCCCS(=O)(=O)NC(=O)c2nc(N3CCc4cccc(C(=O)Nc5nc6ccccc6s5)c4C3)ccc2-c2cnn(CC3CCCCC3)c2C)C(C)(C)C)cc1 [I-118]
### Response > 75%

### Prompt Input Cc1ncsc1-c1ccc(CNC(=O)[C@@H]2C[C@@H](O)CN2C(=O)[C@@H](NC(=O)C2(F)CC2)C(C)(C)C)c(OCCC2CCN(CC[C@H](CSc3ccccc3)Nc3ccc(S(=O)(=O)NC(=O)c4ccc(N5CCN(CC6=C(c7ccc(Cl)cc7)CCC(C)(C)C6)CC5)cc4)cc3S(=O)(=O)C(F)(F)F)CC2)c1 [I-183]
### Response 50 to 75%

### Prompt Input Cc1ncsc1-c1ccc(CNC(=O)[C@@H]2C[C@@H](O)CN2C(=O)[C@@H](NC(=O)C2CCN(c3ccc(S(=O)(=O)NC(=O)c4nc(N5CCc6cccc(C(=O)Nc7nc8ccccc8s7)c6C5)ccc4-c4cnn(CC5CCCCC5)c4C)cc3)CC2)C(C)(C)C)cc1 [I-252]
### Response > 75%

----------
target: BCL-XL (Homo sapiens, UniProt Q07817); construct: endogenous in cells; host or cells: MOLT-4; assay: BCL-XL degradation assay, western blot in MOLT-4 cells, 16 h; format: cell-based; details: western blot, MOLT-4 cells, 16 h; read-out: Bcl-xL WB in MOLT-4 degradation 16 h: Average Dmax %
Provide the recorded Dmax for the entries that follow.

### Prompt Fill blank: measured Dmax of the compound Cc1ncsc1-c1ccc([C@H](C)NC(=O)[C@@H]2C[C@@H](O)CN2C(=O)[C@@H](NC(=O)C2CCN(c3ccc(S(=O)(=O)NC(=O)c4nc(N5CCc6cccc(C(=O)Nc7nc8cccnc8s7)c6C5)ccc4-c4cnn(CC5CCCCC5)c4C)cc3)CC2)C(C)(C)C)cc1 [I-241] is ____.
### Response > 75%

### Prompt Input Cc1ncsc1-c1ccc(CNC(=O)[C@@H]2C[C@@H](O)CN2C(=O)[C@@H](NC(=O)C2(F)CC2)C(C)(C)C)c(OCCCCNC(=O)c2nc(N3CCc4cccc(C(=O)Nc5nc6ccccc6s5)c4C3)ccc2-c2cnn(CC3CCCCC3)c2C)c1 [I-190]
### Response 50 to 75%

### Prompt Input Cc1cc(N(CCCC(=O)N[C@H](C(=O)N2C[C@H](O)C[C@H]2C(=O)N[C@@H](C)c2ccc(-c3scnc3C)cc2)C(C)(C)C)c2ccc(-c3cnn(CC4CCCCC4)c3C)c(C(=O)O)n2)nnc1Nc1nc2ccccc2s1 [I-113]
### Response < 50%

### Prompt Input Cc1ncsc1-c1ccc(CNC(=O)[C@@H]2C[C@@H](O)CN2C(=O)[C@@H](NC(=O)C2(F)CC2)C(C)(C)C)c(OCCCN(C)CC[C@H](CSc2ccccc2)Nc2ccc(S(=O)(=O)NC(=O)c3ccc(N4CCN(CC5=C(c6ccc(Cl)cc6)CCC(C)(C)C5)CC4)cc3)cc2S(=O)(=O)C(F)(F)F)c1 [I-184]
### Response > 75%

### Prompt Input Cc1ncsc1-c1ccc(CNC(=O)[C@@H]2C[C@@H](O)CN2C(=O)[C@@H](NC(=O)C2(F)CC2)C(C)(C)C)c(OCCCCCC(=O)NCCOc2ccc(C(=O)Nc3nc4ccccc4s3)c3c2CCN(c2ccc(-c4cnn(CC5CCCCC5)c4C)c(C(=O)O)n2)C3)c1 [I-47]
### Response < 50%

### Prompt Input Cc1ncsc1-c1ccc(CNC(=O)[C@@H]2C[C@@H](O)CN2C(=O)C(c2cc(OCCCCCCCCC(=O)N(C)CC#Cc3ccc(OCCCc4sc(N5CCc6cccc(C(=O)Nc7nc8ccccc8s7)c6C5)nc4C(=O)O)c(F)c3)no2)C(C)C)cc1 (stereo partly drawn) [I-88]
### Response > 75%

### Prompt Input Cc1ncsc1-c1ccc([C@H](C)NC(=O)[C@@H]2C[C@@H](O)CN2C(=O)[C@@H](NC(=O)N2CC3(C2)CN(c2ccc(S(=O)(=O)NC(=O)c4nc(N5CCc6cccc(C(=O)Nc7nc8ccccc8s7)c6C5)ccc4-c4cnn(CC5CCCCC5)c4C)cc2)C3)C(C)(C)C)cc1 [I-196]
### Response 50 to 75%

### Prompt Input Cc1ncsc1-c1ccc([C@H](CC(=O)NCCCCCNC(=O)c2nc(N3CCc4cccc(C(=O)Nc5nc6ccccc6s5)c4C3)ccc2-c2cnn(CC3CCCCC3)c2C)NC(=O)[C@@H]2C[C@@H](O)CN2C(=O)[C@@H](NC(=O)C2(F)CC2)C(C)(C)C)cc1 [I-199]
### Response > 75%

### Prompt Input Cc1cc(N(CCN(C)C(=O)CCCOc2cc(-c3scnc3C)ccc2CNC(=O)[C@@H]2C[C@@H](O)CN2C(=O)[C@@H](NC(=O)C2(F)CC2)C(C)(C)C)c2ccc(-c3cnn(CC4CCCCC4)c3C)c(C(=O)O)n2)nnc1Nc1nc2ccccc2s1 [I-102]
### Response 50 to 75%

### Prompt Input Cc1ncsc1-c1ccc([C@H](C)NC(=O)[C@@H]2C[C@@H](O)CN2C(=O)[C@@H](NC(=O)N2CCC3(CCC(C(=O)N4CCN(CC[C@H](CSc5ccccc5)Nc5ccc(S(=O)(=O)NC(=O)c6ccc(N7CCN(CC8=C(c9ccc(Cl)cc9)CCC(C)(C)C8)CC7)cc6)cc5S(=O)(=O)C(F)(F)F)CC4)CC3)CC2)C(C)(C)C)cc1 [I-126]
### Response < 50%

### Prompt Input Cc1ncsc1-c1ccc([C@H](C)NC(=O)[C@@H]2C[C@@H](O)CN2C(=O)[C@@H](NC(=O)CCCCCCC(=O)N2CCN(CC3(C)CCC(c4ccc(Cl)cc4)=C(CN4CCN(c5ccc(C(=O)NS(=O)(=O)c6ccc(NCC78CC9CC(CC(O)(C9)C7)C8)c(S(=O)(=O)C(F)(F)F)c6)cc5)CC4)C3)CC2)C(C)(C)C)cc1 (stereo partly drawn) [I-398]
### Response < 50%

### Prompt Input Cc1ncsc1-c1ccc([C@H](C)NC(=O)[C@@H]2C[C@@H](O)CN2C(=O)[C@@H](NC(=O)COCCN2CCC(S(=O)(=O)NC(=O)c3nc(N4CCc5cccc(C(=O)Nc6nc7ccccc7s6)c5C4)ccc3-c3cnn(CC4CCCCC4)c3C)CC2)C(C)(C)C)cc1 [I-206]
### Response > 75%

### Prompt Input Cc1ncsc1-c1ccc([C@H](C)NC(=O)[C@@H]2C[C@@H](O)CN2C(=O)[C@@H](NC(=O)CCCCCCNC(=O)c2nc(N3CCc4cccc(C(=O)Nc5nc6ccccc6s5)c4C3)ccc2-c2cnn(CC3CCCCC3)c2C)C(C)(C)C)cc1 [I-96]
### Response > 75%

### Prompt Input Cc1ncsc1-c1ccc([C@H](C)NC(=O)[C@@H]2C[C@@H](O)CN2C(=O)[C@@H](NC(=O)CCCCCS(=O)(=O)NC(=O)c2nc(N3CCc4cccc(C(=O)Nc5nc6ccccc6s5)c4C3)ccc2-c2cnn(CC3CCCCC3)c2C)C(C)(C)C)cc1 [I-118]
### Response > 75%

### Prompt Input Cc1ncsc1-c1ccc(CNC(=O)[C@@H]2C[C@@H](O)CN2C(=O)[C@@H](NC(=O)C2(F)CC2)C(C)(C)C)c(OCCN2CCC(CS(=O)(=O)NC(=O)c3nc(N4CCc5cccc(C(=O)Nc6nc7ccccc7s6)c5C4)ccc3-c3cnn(CC4CCCCC4)c3C)CC2)c1 [I-189]
### Response > 75%
